test target: TSSK1(h) (Homo sapiens, UniProt Q9BXA7)
Sequence (Q9BXA7 1-367): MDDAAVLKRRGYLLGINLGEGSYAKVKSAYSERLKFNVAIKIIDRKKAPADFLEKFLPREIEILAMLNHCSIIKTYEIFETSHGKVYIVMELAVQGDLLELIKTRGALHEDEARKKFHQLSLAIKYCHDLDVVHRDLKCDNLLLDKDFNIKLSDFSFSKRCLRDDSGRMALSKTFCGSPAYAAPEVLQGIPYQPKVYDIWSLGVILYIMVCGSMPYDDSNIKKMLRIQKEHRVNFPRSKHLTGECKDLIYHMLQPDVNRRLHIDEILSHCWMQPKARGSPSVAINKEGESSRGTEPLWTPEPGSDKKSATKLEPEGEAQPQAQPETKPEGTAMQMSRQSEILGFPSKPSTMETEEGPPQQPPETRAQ
test description: Kinase Profiling Assay
Assay type: biochemical
assay setup: 100 μM
measured parameter: % activity (%)
Give bare numbers, in %.

Could you report % activity for every entry in the following list?
1. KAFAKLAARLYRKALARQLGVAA [MMI-0400]
2. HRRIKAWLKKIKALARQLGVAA [MMI-0500]
3. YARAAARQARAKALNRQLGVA [MMI-0200]
4. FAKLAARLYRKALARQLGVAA [MMI-0300]

(A)
1. 79
2. 46
3. 98
4. 79

The reported measurements were obtained from patent US20190134153A1.
